Target: GST-Hu-p50 (Homo sapiens, UniProt P19838 7-356)
Sequence (P19838 7-356): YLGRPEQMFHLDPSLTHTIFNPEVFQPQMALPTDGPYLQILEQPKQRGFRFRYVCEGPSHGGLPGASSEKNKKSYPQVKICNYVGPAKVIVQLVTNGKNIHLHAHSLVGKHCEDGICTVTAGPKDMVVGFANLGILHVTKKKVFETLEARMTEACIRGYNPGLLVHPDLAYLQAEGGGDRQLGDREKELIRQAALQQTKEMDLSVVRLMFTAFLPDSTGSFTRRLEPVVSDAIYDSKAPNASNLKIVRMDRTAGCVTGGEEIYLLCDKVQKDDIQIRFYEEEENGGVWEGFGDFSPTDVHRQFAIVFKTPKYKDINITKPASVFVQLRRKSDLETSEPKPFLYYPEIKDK
Test: protein-binding microarray (PBM); PBM: ~300 nM protein, 6 mM HEPES pH 7.8, 80 mM KCl, 0.5 mM EDTA, 0.5 mM EGTA, 6% glycerol, 35 ng/ul poly-dIdC, 1% milk, 1 h, room temperature; Ap Aiptasia and Nv Nematostella (sea anemones) / Co Capsaspora / Aq Amphimedon (sponge) / Dm Drosophila / Hu human; RHD is the Rel homology domain; high values mean tight binding
Conditions: dsDNA, one strand shown
Consider the following sequences and their measured binding signal readings.
All answers are understood in z-score, so give the number only.

>>> numeric_value("CCGATTAACATCAGGGGAAAACATGATGTTAATCGGGTCTTGATTCGCTTGACGCTGCTG")
6.18
>>> numeric_value("CCGATTAACATCACTAAACCCCCTGATGTTAATCGGGTCTTGATTCGCTTGACGCTGCTG")
6.25
>>> numeric_value("CCGATTAACATCAAGGGGAAAACTGATGTTAATCGGGTCTTGATTCGCTTGACGCTGCTG")
6.9
>>> numeric_value("CCGATTAACATCAGGGGACTTCATGATGTTAATCGGGTCTTGATTCGCTTGACGCTGCTG")
5.72

Req: I have this sequence here, `CCGATTAACATCAAAACGTCCCCTGATGTTAATCGGGTCTTGATTCGCTTGACGCTGCTG` , and I need its recorded binding signal.
Resp: 5.59

Req: # repeat for `CCGATTAACATCACGGTTTCCCCTGATGTTAATCGGGTCTTGATTCGCTTGACGCTGCTG`
Resp: 5.88

Req: # repeat for `CCGATTAACATCACCCACCCCCCTGATGTTAATCGGGTCTTGATTCGCTTGACGCTGCTG`
Resp: 3.99

Req: # repeat for `CCGATTAACATCACGGTGTTTCCTGATGTTAATCGGGTCTTGATTCGCTTGACGCTGCTG`
Resp: 2.96

Req: # repeat for `CCGATTAACATCAATATCCCCCCTGATGTTAATCGGGTCTTGATTCGCTTGACGCTGCTG`
Resp: 5.69

Req: # repeat for `CCGATTAACATCAGGGGGTTGGATGATGTTAATCGGGTCTTGATTCGCTTGACGCTGCTG`
Resp: 4.51

Req: # repeat for `CCGATTAACATCATCCCTCCCCATGATGTTAATCGGGTCTTGATTCGCTTGACGCTGCTG`
Resp: 1.83

Req: # repeat for `CCGATTAACATCAAATAATCCCCTGATGTTAATCGGGTCTTGATTCGCTTGACGCTGCTG`
Resp: 6.78

Req: # repeat for `CCGATTAACATCAACGTGGGAAATGATGTTAATCGGGTCTTGATTCGCTTGACGCTGCTG`
Resp: 1.29

Req: # repeat for `CCGATTAACATCAGCAAATTCCCTGATGTTAATCGGGTCTTGATTCGCTTGACGCTGCTG`
Resp: 4.19

Req: # repeat for `CCGATTAACATCAGGGGCATACCTGATGTTAATCGGGTCTTGATTCGCTTGACGCTGCTG`
Resp: 2.64

Req: # repeat for `CCGATTAACATCAGGGGCTTTACTGATGTTAATCGGGTCTTGATTCGCTTGACGCTGCTG`
Resp: 4.83

Req: # repeat for `CCGATTAACATCAGGGGAAAAGATGATGTTAATCGGGTCTTGATTCGCTTGACGCTGCTG`
Resp: 5.18

Req: # repeat for `CCGATTAACATCATATTTTCCCATGATGTTAATCGGGTCTTGATTCGCTTGACGCTGCTG`
Resp: 4.15

Req: # repeat for `CCGATTAACATCATGTTTGCGGGTGATGTTAATCGGGTCTTGATTCGCTTGACGCTGCTG`
Resp: 1.53
